Assign koff to each entry below.
Biological target: T1, human soluble urokinase plasminogen activator receptor (suPAR) (human, UniProt Q03405 23-303, limits assumed)
T1 construct: Target antigen of the off-rate screen; also called hsuPAR; human suPAR
T1 sequence (Q03405 23-303 limits assumed): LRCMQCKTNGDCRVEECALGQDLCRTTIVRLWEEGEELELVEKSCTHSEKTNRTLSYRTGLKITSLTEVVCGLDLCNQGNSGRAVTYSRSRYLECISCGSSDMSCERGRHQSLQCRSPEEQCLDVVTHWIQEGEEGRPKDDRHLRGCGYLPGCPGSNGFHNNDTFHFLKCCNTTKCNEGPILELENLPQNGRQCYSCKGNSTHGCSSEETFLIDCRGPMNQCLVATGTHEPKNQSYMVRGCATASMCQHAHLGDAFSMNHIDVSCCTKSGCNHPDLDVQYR
Assay: off-rate (kdis) screen of scFv clones, biosensor (Octet)
Answer format: numeric, s⁻¹ implied, no suffix.

Look at this binder and give its reported koff. suPAR_DB01_A03 (scFv, V domains shown, screened as scFv) VH: QVQLVQSGAEVKKPGASVKVSCKASGYTFTSNYIHWVRQAPGQGLEWMGWIDHENGSTSYDQKFQGRVTMTRDTSTSTVYMELSSLRSEDTAVYYCARGYDVDWFVYWGQGTLVTVSS VL: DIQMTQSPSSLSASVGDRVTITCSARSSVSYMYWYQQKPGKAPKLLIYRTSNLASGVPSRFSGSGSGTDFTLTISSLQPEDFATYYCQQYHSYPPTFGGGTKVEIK
0.00256

Look at this binder and give its reported koff. suPAR_DB01_B06 (scFv, V domains shown, screened as scFv) VH: QVQLVQSGAEVKKPGASVKVSCKASGYTFTDYYMHWVRQAPGQGLEWMGWIDHENGNTIYDQKFQGRVTMTRDTSTSTVYMELSSLRSEDTAVYYCARGYDVDWFVYWGQGTLVTVSS VL: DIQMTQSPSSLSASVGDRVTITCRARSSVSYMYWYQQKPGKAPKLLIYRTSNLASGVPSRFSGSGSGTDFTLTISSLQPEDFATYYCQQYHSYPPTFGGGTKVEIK
0.00348

Look at this binder and give its reported koff. suPAR_DB01_E06 (scFv, V domains shown, screened as scFv) VH: QVQLVQSGAEVKKPGASVKVSCKASGYTFINYYMHWVRQAPGQGLEWMGWIDPENGNTIYDQKFQGRVTMTRDTSTSTVYMELSSLRSEDTAVYYCARGYDVDWFVYWGQGTLVTVSS VL: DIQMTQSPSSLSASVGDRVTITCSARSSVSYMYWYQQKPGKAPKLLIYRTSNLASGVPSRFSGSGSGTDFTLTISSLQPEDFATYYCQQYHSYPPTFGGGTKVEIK
0.00224

Look at this binder and give its reported koff. suPAR_DB01_E04 (scFv, V domains shown, screened as scFv) VH: QVQLVQSGAEVKKPGASVKVSCKASGYTFTGYYMHWVRQAPGQGLEWMGWIDHENGNTIYDQKFQGRVTMTRDTSTSTVYMELSSLRSEDTAVYYCARGYDVDWFVYWGQGTLVTVSS VL: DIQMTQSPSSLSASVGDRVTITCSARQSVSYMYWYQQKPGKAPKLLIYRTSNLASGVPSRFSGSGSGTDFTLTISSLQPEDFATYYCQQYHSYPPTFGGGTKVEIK
0.0014

Look at this binder and give its reported koff. suPAR_DB01_D04 (scFv, V domains shown, screened as scFv) VH: QVQLVQSGAEVKKPGASVKVSCKASGYTFTSYYMHWVRQAPGQGLEWMGWIDHENGSTIYAQKFQGRVTMTRDTSTSTVYMELSSLRSEDTAVYYCARGYDVDWFVYWGQGTLVTVSS VL: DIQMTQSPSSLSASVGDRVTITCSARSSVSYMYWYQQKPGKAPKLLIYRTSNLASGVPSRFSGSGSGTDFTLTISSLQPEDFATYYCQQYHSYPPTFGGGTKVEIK
0.000872
